System: OVCAR-5 ovarian
Experiment: NCI tumour cell line growth inhibition, 48 h
// reported TGI per item
ENDPOINT_NAME: TGI (µM)

molecule=CC(C)c1ccc2c(c1)CC[C@@H]1[C@@](C)(C(=O)O)CCC[C@]21C endpoint_name=TGI lt_gt_eq== quantitative_result=25.6
molecule=CC(=O)c1ccc(NCc2cc(O)ccc2O)cc1 endpoint_name=TGI lt_gt_eq== quantitative_result=44.2
molecule=C[N+](CCCl)(CCCl)Cc1cccc2cccc([N+](=O)[O-])c12 endpoint_name=TGI lt_gt_eq=> quantitative_result=100
molecule="CC(=O)Nc1ccc(N2C(=O)/C(=C\\c3cccc(Oc4ccccc4)c3)S(=O)(=O)C2c2ccccc2)cc1 (stereo unspecified)" endpoint_name=TGI lt_gt_eq=> quantitative_result=100
molecule=OC[C@H]1C[C@](O)(c2ccc(Cl)cc2)[C@@H](c2ccc(Cl)cc2)O1 endpoint_name=TGI lt_gt_eq== quantitative_result=71.7
molecule="COC(=O)C1=C(C)NC2=C(C(=O)c3ccccc32)C1c1cn(-c2ccccc2)nc1-c1ccccc1 (stereo unspecified)" endpoint_name=TGI lt_gt_eq=> quantitative_result=100

----------
System: COLO 205 colon
Experiment: NCI tumour cell line growth inhibition, 48 h
Reported TGI by item:
ENDPOINT_NAME: TGI (µM)

compound=COc1ccc(-n2cc(-c3cc(OC)c(OC)c(OC)c3)c(C(=O)C(F)(F)F)c2C)cc1 endpoint_name=TGI units=µM lt_gt_eq=> quantitative_result=100
compound=N#Cc1c(-c2ccc(Cl)cc2)c2c([nH]c1=O)-c1ccccc1SC2 endpoint_name=TGI units=µM lt_gt_eq== quantitative_result=50.3
compound="Cn1nc(N)c2cc([C@@H]3Nc4ccc5[nH]ncc5c4[C@H]4C5CCC(C5)[C@@H]34)ccc21 (some centres not stated)" endpoint_name=TGI units=µM lt_gt_eq== quantitative_result=13
compound="OC1(C(F)(F)F)OCCN=C1C(F)(F)F (configuration not stated)" endpoint_name=TGI units=µM lt_gt_eq=> quantitative_result=100
compound="CCN(CC)c1ccc2c(c1)OC(N)=C(C#N)C2c1cc(OC)c2c(c1)OCO2 (configuration not stated)" endpoint_name=TGI units=µM lt_gt_eq== quantitative_result=0.424
compound="O=C(NCC(=O)N1CCCC1C(=O)OC(=O)C1CCCN1C(=O)CNC(=O)OCc1ccccc1)OCc1ccccc1 (configuration not stated)" endpoint_name=TGI units=µM lt_gt_eq== quantitative_result=33.9
compound=Cc1cc(C)nc(NC(=O)c2ccc(Br)s2)c1 endpoint_name=TGI units=µM lt_gt_eq== quantitative_result=23.5
compound=CN(C)c1ccc(C(C=C2c3ccccc3Sc3ccccc32)=C(C#N)C#N)cc1 endpoint_name=TGI units=µM lt_gt_eq=> quantitative_result=100
compound=C=COCCCOc1ccccc1 endpoint_name=TGI units=µM lt_gt_eq=> quantitative_result=100
compound=O=S1(=O)C[C@H](O)[C@H](O)CS1 endpoint_name=TGI units=µM lt_gt_eq=> quantitative_result=100
compound=O=C(C=P(c1ccccc1)(c1ccccc1)c1ccccc1)c1ccc(-c2cccc([N+](=O)[O-])c2)s1 endpoint_name=TGI units=µM lt_gt_eq== quantitative_result=27.9
compound=CC(C)(C)OC(=O)N1CCc2[nH][nH]c(=O)c2C1 endpoint_name=TGI units=µM lt_gt_eq=> quantitative_result=100
compound="Nc1ccc2c(c1)N(C(=O)c1cc3cc(NC(=O)c4cc5ccccc5o4)ccc3[nH]1)CC2CCl (configuration not stated)" endpoint_name=TGI units=µM lt_gt_eq== quantitative_result=1.6
compound=O=C(CNc1ccc(Cl)cc1)Nc1ccc(-c2nc3ccccc3s2)cc1 endpoint_name=TGI units=µM lt_gt_eq== quantitative_result=10.2
compound=FC(F)(F)c1ccc(N=C/C=C(/Nc2ccc(C(F)(F)F)cc2)c2ccc(Cl)cc2)cc1 endpoint_name=TGI units=µM lt_gt_eq== quantitative_result=32.6
compound=CCN(CC)CCOc1ccc(-c2nc3cc(Cl)ccc3s2)cc1 endpoint_name=TGI units=µM lt_gt_eq== quantitative_result=2.76
compound=O=C1/C(=C/c2ccc(Br)cc2)COc2ccc(O)c(O)c21 endpoint_name=TGI units=µM lt_gt_eq== quantitative_result=3.18
compound=CCOc1ccccc1C=C1c2ccccc2C(=O)c2ccccc21 endpoint_name=TGI units=µM lt_gt_eq== quantitative_result=17.4
compound="O=C1C2CC=CCC2C(=O)N1n1c(Cc2ccc(Cl)cc2)n[nH]c1=O (configuration not stated)" endpoint_name=TGI units=µM lt_gt_eq=> quantitative_result=100
compound="C=C1C(=O)OC2CCN3CC=C(COC(=O)C(C)(O)C4(CO4)C1C)C23 (configuration not stated)" endpoint_name=TGI units=µM lt_gt_eq=> quantitative_result=100
compound="CNC(C#N)c1ccc(OC)cc1 (configuration not stated)" endpoint_name=TGI units=µM lt_gt_eq=> quantitative_result=100
compound=O=C1NC(NNc2ccccc2)=N/C1=C\c1ccccc1O endpoint_name=TGI units=µM lt_gt_eq=> quantitative_result=100
